// reported protein stability index for each item listed
Tested on: Saccharomyces cerevisiae
method-description: protein stability index of tFT-peptide fusion (C-terminal peptide) (PSI (0-1 scale)); higher = more stable (slower turnover)
assay-conditions: genetic background: das1 deletion; temperature: 30 C
recorded-endpoint: protein stability index

{"seq-text": "QSADAAGVVKKH [GCN20 C-terminal 12 aa]", "target-under-test": "Saccharomyces cerevisiae", "recorded-endpoint": "protein stability index", "test-result": 0.683}
{"seq-text": "ITRDESTATYKY [RTT101 C-terminal 12 aa]", "target-under-test": "Saccharomyces cerevisiae", "recorded-endpoint": "protein stability index", "test-result": 0.695}
{"seq-text": "SLEKELISRGYR [CDC73 C-terminal 12 aa]", "target-under-test": "Saccharomyces cerevisiae", "recorded-endpoint": "protein stability index", "test-result": 0.724}
{"seq-text": "HPNIDALLKKTE [MST27 C-terminal 12 aa]", "target-under-test": "Saccharomyces cerevisiae", "recorded-endpoint": "protein stability index", "test-result": 0.686}
{"seq-text": "MEDILDETTELD [ATG40 C-terminal 12 aa]", "target-under-test": "Saccharomyces cerevisiae", "recorded-endpoint": "protein stability index", "test-result": 0.715}
{"seq-text": "EREVNPSARSLG [YLR184W C-terminal 12 aa]", "target-under-test": "Saccharomyces cerevisiae", "recorded-endpoint": "protein stability index", "test-result": 0.694}
{"seq-text": "KLFESGQDSFDN [MRC1 C-terminal 12 aa]", "target-under-test": "Saccharomyces cerevisiae", "recorded-endpoint": "protein stability index", "test-result": 0.719}
{"seq-text": "DIGKKKYSHSSN [RER1 C-terminal 12 aa]", "target-under-test": "Saccharomyces cerevisiae", "recorded-endpoint": "protein stability index", "test-result": 0.673}
{"seq-text": "GATEKRKCAKPF [CSL4 C-terminal 12 aa]", "target-under-test": "Saccharomyces cerevisiae", "recorded-endpoint": "protein stability index", "test-result": 0.674}
{"seq-text": "RLPRSFLFLNKK [YOR343C C-terminal 12 aa]", "target-under-test": "Saccharomyces cerevisiae", "recorded-endpoint": "protein stability index", "test-result": 0.723}
{"seq-text": "ESSARRDRKEHI [TMA23 C-terminal 12 aa]", "target-under-test": "Saccharomyces cerevisiae", "recorded-endpoint": "protein stability index", "test-result": 0.679}
{"seq-text": "RRQMGIPTISQV [FHN1 C-terminal 12 aa]", "target-under-test": "Saccharomyces cerevisiae", "recorded-endpoint": "protein stability index", "test-result": 0.681}
{"seq-text": "ELAYKSFYALLD [VPS28 C-terminal 12 aa]", "target-under-test": "Saccharomyces cerevisiae", "recorded-endpoint": "protein stability index", "test-result": 0.691}
{"seq-text": "VMPIFIYFYTVV [CDC1 C-terminal 12 aa]", "target-under-test": "Saccharomyces cerevisiae", "recorded-endpoint": "protein stability index", "test-result": 0.38}
{"seq-text": "YNITQQILQFLH [VAC8 C-terminal 12 aa]", "target-under-test": "Saccharomyces cerevisiae", "recorded-endpoint": "protein stability index", "test-result": 0.701}
{"seq-text": "KKEPGANCCIIL [RHO2 C-terminal 12 aa]", "target-under-test": "Saccharomyces cerevisiae", "recorded-endpoint": "protein stability index", "test-result": 0.743}
{"seq-text": "LKNYLEAQIAKK [YPR097W C-terminal 12 aa]", "target-under-test": "Saccharomyces cerevisiae", "recorded-endpoint": "protein stability index", "test-result": 0.692}
{"seq-text": "IEKNHAKFTDLT [CSH1 C-terminal 12 aa]", "target-under-test": "Saccharomyces cerevisiae", "recorded-endpoint": "protein stability index", "test-result": 0.707}
{"seq-text": "YIHTYIYLLFVY [YIL100C-A C-terminal 12 aa]", "target-under-test": "Saccharomyces cerevisiae", "recorded-endpoint": "protein stability index", "test-result": 0.222}
{"seq-text": "DSEDDNDTSSES [PRP38 C-terminal 12 aa]", "target-under-test": "Saccharomyces cerevisiae", "recorded-endpoint": "protein stability index", "test-result": 0.682}
{"seq-text": "DKEVLHVKADSL [FTR1 C-terminal 12 aa]", "target-under-test": "Saccharomyces cerevisiae", "recorded-endpoint": "protein stability index", "test-result": 0.713}
{"seq-text": "KTTPRNVELFGM [DXO1 C-terminal 12 aa]", "target-under-test": "Saccharomyces cerevisiae", "recorded-endpoint": "protein stability index", "test-result": 0.678}
{"seq-text": "ANMAAYDKAIHC [LPD1 C-terminal 12 aa]", "target-under-test": "Saccharomyces cerevisiae", "recorded-endpoint": "protein stability index", "test-result": 0.681}
{"seq-text": "SLKNYHNNTAQA [DBP6 C-terminal 12 aa]", "target-under-test": "Saccharomyces cerevisiae", "recorded-endpoint": "protein stability index", "test-result": 0.688}
{"seq-text": "LYGKYNYAAQKV [YDL124W C-terminal 12 aa]", "target-under-test": "Saccharomyces cerevisiae", "recorded-endpoint": "protein stability index", "test-result": 0.692}
{"seq-text": "EVKVDKVVYEKE [VPS29 C-terminal 12 aa]", "target-under-test": "Saccharomyces cerevisiae", "recorded-endpoint": "protein stability index", "test-result": 0.683}
{"seq-text": "KRMALFVQEKLA [YFL031C-A C-terminal 12 aa]", "target-under-test": "Saccharomyces cerevisiae", "recorded-endpoint": "protein stability index", "test-result": 0.717}
{"seq-text": "KKKKSLFLFGKI [YOR019W C-terminal 12 aa]", "target-under-test": "Saccharomyces cerevisiae", "recorded-endpoint": "protein stability index", "test-result": 0.702}
{"seq-text": "NDGTFLDEVTKN [OPI10 C-terminal 12 aa]", "target-under-test": "Saccharomyces cerevisiae", "recorded-endpoint": "protein stability index", "test-result": 0.692}
{"seq-text": "YDLVEKCVWRGI [ORC3 C-terminal 12 aa]", "target-under-test": "Saccharomyces cerevisiae", "recorded-endpoint": "protein stability index", "test-result": 0.707}
{"seq-text": "VKDFYKRLETLK [RRM3 C-terminal 12 aa]", "target-under-test": "Saccharomyces cerevisiae", "recorded-endpoint": "protein stability index", "test-result": 0.691}
{"seq-text": "LTVLCVILGYVL [UTR2 C-terminal 12 aa]", "target-under-test": "Saccharomyces cerevisiae", "recorded-endpoint": "protein stability index", "test-result": 0.576}
{"seq-text": "PSGNIVMERLDE [UBX3 C-terminal 12 aa]", "target-under-test": "Saccharomyces cerevisiae", "recorded-endpoint": "protein stability index", "test-result": 0.69}
{"seq-text": "KAIEYFEEYQCW [FRE2 C-terminal 12 aa]", "target-under-test": "Saccharomyces cerevisiae", "recorded-endpoint": "protein stability index", "test-result": 0.722}
{"seq-text": "TRFFDSKYFGCD [URK1 C-terminal 12 aa]", "target-under-test": "Saccharomyces cerevisiae", "recorded-endpoint": "protein stability index", "test-result": 0.701}
{"seq-text": "TPLGQTLLDSRR [DAL1 C-terminal 12 aa]", "target-under-test": "Saccharomyces cerevisiae", "recorded-endpoint": "protein stability index", "test-result": 0.676}
{"seq-text": "IQKLNKVLEDSI [ATP5 C-terminal 12 aa]", "target-under-test": "Saccharomyces cerevisiae", "recorded-endpoint": "protein stability index", "test-result": 0.675}
{"seq-text": "EDHKFDLSTITV [MRPL24 C-terminal 12 aa]", "target-under-test": "Saccharomyces cerevisiae", "recorded-endpoint": "protein stability index", "test-result": 0.703}
{"seq-text": "NQGSDVSFNEED [TOP2 C-terminal 12 aa]", "target-under-test": "Saccharomyces cerevisiae", "recorded-endpoint": "protein stability index", "test-result": 0.709}
{"seq-text": "VEDQSIEVKKEK [YPC1 C-terminal 12 aa]", "target-under-test": "Saccharomyces cerevisiae", "recorded-endpoint": "protein stability index", "test-result": 0.684}
{"seq-text": "DDNDDGDDDDDW [MYO3 C-terminal 12 aa]", "target-under-test": "Saccharomyces cerevisiae", "recorded-endpoint": "protein stability index", "test-result": 0.687}
{"seq-text": "AKAQSQALVTGM [PCL6 C-terminal 12 aa]", "target-under-test": "Saccharomyces cerevisiae", "recorded-endpoint": "protein stability index", "test-result": 0.681}
{"seq-text": "FARFITAIFHHI [MKC7 C-terminal 12 aa]", "target-under-test": "Saccharomyces cerevisiae", "recorded-endpoint": "protein stability index", "test-result": 0.73}
{"seq-text": "TKKSSSHHRTGK [DIG1 C-terminal 12 aa]", "target-under-test": "Saccharomyces cerevisiae", "recorded-endpoint": "protein stability index", "test-result": 0.697}
{"seq-text": "GINAGEIEIPEN [RPL12A C-terminal 12 aa]", "target-under-test": "Saccharomyces cerevisiae", "recorded-endpoint": "protein stability index", "test-result": 0.692}
{"seq-text": "IFLNDVYFNLMV [YPR126C C-terminal 12 aa]", "target-under-test": "Saccharomyces cerevisiae", "recorded-endpoint": "protein stability index", "test-result": 0.728}
{"seq-text": "VPEPGDQPLVQA [YPR078C C-terminal 12 aa]", "target-under-test": "Saccharomyces cerevisiae", "recorded-endpoint": "protein stability index", "test-result": 0.725}
{"seq-text": "GGGASSIVIEKI [ERG10 C-terminal 12 aa]", "target-under-test": "Saccharomyces cerevisiae", "recorded-endpoint": "protein stability index", "test-result": 0.697}
{"seq-text": "GHNDGDINVWTL [CAF4 C-terminal 12 aa]", "target-under-test": "Saccharomyces cerevisiae", "recorded-endpoint": "protein stability index", "test-result": 0.718}
